# assayed_target: Gardos channel of erythrocytes (Homo sapiens)
# Construct: endogenous in cells; host or cells: erythrocytes
# protocol_description: Gardos Channel Assay
# Format: cell-based
# condition_notes: measured at 10 μM compound; read-out: Gardos Channel Assay Inhibition (%)
endpoint: inhibition at 10 µM (%)
One number for each entry, in %.

Examples with answers:
[
  {
    "compound": "O/N=C1\\CC(c2ccccc2)(c2ccccc2)c2ccccc21 [Compound 4, 1-N-Oxime-3,3-Diphenylindane]",
    "inhibition at 10 µM [%]": 100
  },
  {
    "compound": "CC(=O)OC1CC(c2ccccc2)(c2ccccc2)c2ccccc21 (stereo not drawn) [Compound 7, 1-Acetoxy-3,3-diphenylindane]",
    "inhibition at 10 µM [%]": 88
  },
  {
    "compound": "N#CCC1C(=O)c2cc(Cl)ccc2C1(c1ccc(Cl)cc1)c1ccc(Cl)cc1 (stereo not drawn) [Compound 10]",
    "inhibition at 10 µM [%]": 49.5
  }
]

State recorded inhibition at 10 µM for all listed compounds.
1. c1ccc(C2(c3ccccc3)CC(OCc3ccc4ccccc4c3)c3ccccc32)cc1 (stereo not drawn) [Compound 16]
2. N#CCC1C(O)c2ccccc2C1(c1ccccc1)c1ccccc1 (stereo not drawn) [Compound 13, 2-Cyanomethyl-3,3-diphenylindanol]
3. NC1=Nc2ccccc2C1(c1ccccc1)c1ccccc1 [Compound 1]

Output:
1. 0
2. 99.5
3. 98

Record inhibition at 10 µM per entry; entries follow.
1. O=C1CC(c2ccccc2)(c2ccccc2)c2ccccc21 [Compound 2, 3,3-Diphenylindanone]
2. NC(=O)CC1C(=O)c2ccccc2C1(c1ccccc1)c1ccccc1 (stereo not drawn) [Compound 12, 2-Acetamide-3,3-diphenylindanone]

Output:
100
99.5

Input: Any idea what inhibition at 10 µM was measured for NC(=O)CC1C(O)c2ccccc2C1(c1ccccc1)c1ccccc1 (stereo not drawn) [Compound 14, 2-Acetamide-3,3-diphenylindanol] ?
Output: 90.5

====

endpoint: melting point

Below is a list of compounds. For each, state its recorded melting point.
1. NC(=O)CC1C(O)c2ccccc2C1(c1ccccc1)c1ccccc1 (centres unmarked) [Compound 14, 2-Acetamide-3,3-diphenylindanol]
2. N#CCC1C(O)c2ccccc2C1(c1ccccc1)c1ccccc1 (centres unmarked)
3. OC1CC(c2ccccc2)(c2ccccc2)c2ccccc21 (centres unmarked) [Compound 3, 1-Hydroxy-3,3-Diphenylindane]
4. CC(=O)OC1CC(c2ccccc2)(c2ccccc2)c2ccccc21 (centres unmarked)
5. O/N=C1\CC(c2ccccc2)(c2ccccc2)c2ccccc21
6. NC(=O)CC1C(=O)c2ccccc2C1(c1ccccc1)c1ccccc1 (centres unmarked) [Compound 12, 2-Acetamide-3,3-diphenylindanone]
7. O=C1CC(c2ccc(Cl)cc2)(c2ccc(Cl)cc2)c2ccc(Cl)cc21

Output:
1. 218 to 220 °C
2. 79 to 85 °C
3. 133 to 135 °C
4. 90 °C
5. 138 to 141 °C
6. 169 to 171 °C
7. 134 °C

Input: Find the recorded melting point belonging to O=C1c2ccccc2C(c2ccccc2)(c2ccccc2)C1CCCO (centres unmarked) and report it.
Output: 98 °C

====

# assayed_target: Gardos channel of erythrocytes (Homo sapiens, UniProt O15554)
# Construct: endogenous in cells; host or cells: erythrocytes
# Sequence (O15554 whole entry): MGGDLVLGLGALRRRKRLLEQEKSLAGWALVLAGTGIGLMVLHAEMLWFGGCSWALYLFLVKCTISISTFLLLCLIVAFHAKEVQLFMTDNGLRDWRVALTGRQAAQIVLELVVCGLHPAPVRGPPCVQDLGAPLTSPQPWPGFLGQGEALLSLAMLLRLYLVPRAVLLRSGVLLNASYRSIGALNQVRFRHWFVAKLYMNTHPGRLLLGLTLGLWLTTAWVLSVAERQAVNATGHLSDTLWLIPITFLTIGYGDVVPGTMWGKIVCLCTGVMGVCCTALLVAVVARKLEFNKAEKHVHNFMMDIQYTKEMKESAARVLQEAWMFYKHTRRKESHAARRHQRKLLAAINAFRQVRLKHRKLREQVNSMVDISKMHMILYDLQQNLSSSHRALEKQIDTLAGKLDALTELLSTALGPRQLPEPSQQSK
# protocol_description: Gardos Channel Assay
# Assay type: cell-based
# condition_notes: measured at 10 μM compound
Assignment: determine reported Gardos Channel Assay Inhibition (%) for the given molecules.
Give bare numbers, in %.

Solved entries:
[
  {
    "molecule": "COC(=O)CC1C(=O)c2ccccc2C1(c1ccccc1)c1ccccc1 (stereo not shown) [Compound 15, 3,3-Diphenylindanone-2-methyl acetate]",
    "assayed_target": "Gardos channel of erythrocytes (Homo sapiens, UniProt O15554)",
    "endpoint": "Gardos Channel Assay Inhibition (%)",
    "observed": 54.8
  },
  {
    "molecule": "Clc1ccccc1COC1CC(c2ccccc2)(c2ccccc2)c2ccccc21 (stereo not shown) [Compound 18]",
    "assayed_target": "Gardos channel of erythrocytes (Homo sapiens, UniProt O15554)",
    "endpoint": "Gardos Channel Assay Inhibition (%)",
    "observed": 0
  },
  {
    "molecule": "C=CCOC1c2ccccc2C(c2ccccc2)(c2ccccc2)C1CC=C (stereo not shown) [Compound 6]",
    "assayed_target": "Gardos channel of erythrocytes (Homo sapiens, UniProt O15554)",
    "endpoint": "Gardos Channel Assay Inhibition (%)",
    "observed": 35.0
  }
]

# ---- query molecule ----
Input: Using the record for N#CC1OC12CC(c1ccccc1)(c1ccccc1)c1ccccc12 (stereo not shown) [Compound 5] , report its Gardos Channel Assay Inhibition (%).
Output: 67.3

====

Task for the reader: assign each of the following molecules its reported pIC50.
# assayed_target: Gardos channel of erythrocytes (Homo sapiens)
# Construct: endogenous in cells; host or cells: erythrocytes
# protocol_description: Gardos Channel Assay
# Type: cell-based
# condition_notes: erythrocytes; read-out: Gardos Channel Assay IC50
One number for each entry, as −log10 of the molar value.

[
  {
    "molecule": "NC1=Nc2ccccc2C1(c1ccccc1)c1ccccc1",
    "assayed_target": "Gardos channel of erythrocytes (Homo sapiens)",
    "pIC50": 6.38
  }
]

Go through the items and report each one's pIC50.
1. O=C1CC(c2ccccc2)(c2ccccc2)c2ccccc21
2. COC(=O)CC1C(=O)c2ccccc2C1(c1ccccc1)c1ccccc1 (stereo not drawn) [Compound 15, 3,3-Diphenylindanone-2-methyl acetate]
3. N#CCC1C(=O)c2ccccc2C1(c1ccccc1)c1ccccc1 (stereo not drawn)
4. NC(=O)CC1C(=O)c2ccccc2C1(c1ccccc1)c1ccccc1 (stereo not drawn) [Compound 12, 2-Acetamide-3,3-diphenylindanone]
5. OC1CC(c2ccccc2)(c2ccccc2)c2ccccc21 (stereo not drawn) [Compound 3, 1-Hydroxy-3,3-Diphenylindane]

Output:
[6.00, 5.54, 6.30, 6.72, 6.09]

# batch size: 3; output pIC50 per entry
1. N#CCC1C(O)c2ccccc2C1(c1ccccc1)c1ccccc1 (stereo not drawn)
2. O/N=C1\CC(c2ccccc2)(c2ccccc2)c2ccccc21
3. NC(=O)CC1C(O)c2ccccc2C1(c1ccccc1)c1ccccc1 (stereo not drawn) [Compound 14, 2-Acetamide-3,3-diphenylindanol]

Output:
1. 5.80
2. 5.87
3. 5.53

====

# assayed_target: Gardos channel of erythrocytes (Homo sapiens)
# Construct: endogenous in cells; host or cells: erythrocytes
# protocol_description: Gardos Channel Assay
# Format: cell-based
# condition_notes: read-out: Gardos Channel Assay Inhibition (%)
endpoint: inhibition at 10 µM (%)
Answers are plain numbers, in %.

These solved cases illustrate the format of a correct answer.
[
  {
    "molecule": "OC1CC(c2ccccc2)(c2ccccc2)c2ccccc21 (stereo not shown) [Compound 3, 1-Hydroxy-3,3-Diphenylindane]",
    "endpoint": "inhibition at 10 µM",
    "observed": 100
  },
  {
    "molecule": "N#CCC1C(=O)c2ccccc2C1(c1ccccc1)c1ccccc1 (stereo not shown)",
    "endpoint": "inhibition at 10 µM",
    "observed": 100
  },
  {
    "molecule": "Clc1ccccc1C(c1ccccc1)(c1ccccc1)n1ccnc1",
    "endpoint": "inhibition at 10 µM",
    "observed": 99.3
  }
]

Continue with the next molecule.
Input: Which measured inhibition at 10 µM value corresponds to O=C1c2ccccc2C(c2ccccc2)(c2ccccc2)C1CCCO (stereo not shown) ?
Output: 43.7

====

# System: U118MG
# protocol_description: SRB antiproliferative assay, U118MG
# Type: cell-based
# condition_notes: Homo sapiens, U-118-MG, read-out: SRB IC50
pIC50: −log10 of the molar value.
endpoint: pIC50

Input: GET /values?readout=pIC50&item= O=C1CC(c2ccc(Cl)cc2)(c2ccc(Cl)cc2)c2ccc(Cl)cc21 [Compound 8, 6-Chloro-3,3-di(4-chlorophenyl)indanone]
Output: < 5.00

====

# Test system: NIH 3T3 mouse fibroblast cells
# protocol_description: Mitogenic Assay (mitogen-induced cell proliferation)
# Assay type: cell-based
# condition_notes: NIH3T3; NIH 3T3 mouse fibroblast cells, mitogen-induced proliferation; read-out: Mitogenic Assay IC50
endpoint: IC50 (µM)
Give bare numbers, in µM.

[
  {
    "compound": "NC1=Nc2ccccc2C1(c1ccccc1)c1ccccc1",
    "assayed_target": "NIH 3T3 mouse fibroblast cells",
    "IC50 / µM": 0.7
  }
]

Now turn to the next compound.
Input: State the recorded IC50 for this entry: N#CCC1C(=O)c2cc(Cl)ccc2C1(c1ccc(Cl)cc1)c1ccc(Cl)cc1 (centres unmarked)
Output: 3.3

====

# Tested on: HT29
# protocol_description: SRB antiproliferative assay, HT29
# Type: cell-based
# condition_notes: Homo sapiens, HT-29, read-out: SRB IC50
endpoint: pIC50
Answers are plain numbers, as −log10 of the molar value.

Input: If you can, please state the reported pIC50 value of COc1cc([C@@H]2c3cc4c(cc3[C@@H](O[C@@H]3O[C@@H]5CO[C@@H](C)O[C@H]5[C@H](O)[C@H]3O)[C@H]3COC(=O)[C@H]23)OCO4)cc(OC)c1O [VP-16, Etoposide (VP-16), reference compound] .
Output: 4.70
